# System: 454973-116-R2-J3-PDC spheroids, viability, % test/control
# test-protocol: Anticancer human tumor 454973-116-R2-J3-PDC patient-derived pancreatic carcinoma cell line growth inhibition [GQUAD]
# conditions-used: second compound 0.316 µM; first compound 1 µM; stronger effect = lower value; spheroids with HUVEC and MSC
readout-name: viability, T/C

molecule="CCCS(=O)(=O)Nc1ccc(F)c(C(=O)c2c[nH]c3ncc(-c4ccc(Cl)cc4)cc23)c1F + CN(C)c1ccc(Nc2c3ccc(NC(=O)CCN4CCCC4)cc3nc3cc(NC(=O)CCN4CCCC4)ccc23)cc1" readout_name="viability, T/C" data_value=105%
molecule="O=c1[nH]cc(F)c(=O)[nH]1 + CN(C)c1ccc(Nc2c3ccc(NC(=O)CCN4CCCC4)cc3nc3cc(NC(=O)CCN4CCCC4)ccc23)cc1" readout_name="viability, T/C" data_value=81.1%
molecule="Nc1ccn(C2OC(CO)C(O)C2(F)F)c(=O)n1 (stereo not drawn) + Cc1cnc(CNC(=O)c2c(=O)c3ccc(N4CCCN(C)CC4)nc3n3c2sc2ccccc23)cn1" readout_name="viability, T/C" data_value=16.1%
molecule="CC1COCCN1c1cc(C2(O)CC3CCC(C2)O3)c2cnn(-c3ccn[nH]3)c2n1 (stereo not drawn) + CN(C)c1ccc(Nc2c3ccc(NC(=O)CCN4CCCC4)cc3nc3cc(NC(=O)CCN4CCCC4)ccc23)cc1" readout_name="viability, T/C" data_value=21%
molecule="C=CC(=O)N1CCN(c2nc(=O)n(-c3c(C)ccnc3C(C)C)c3nc(-c4c(O)cccc4F)c(F)cc23)C(C)C1 (stereo not drawn) + Cc1cnc(CNC(=O)c2c(=O)c3ccc(N4CCCN(C)CC4)nc3n3c2sc2ccccc23)cn1" readout_name="viability, T/C" data_value=78.5%
molecule="O=C(c1cc(Cc2n[nH]c(=O)c3ccccc23)ccc1F)N1CCN(C(=O)C2CC2)CC1 + Cc1cnc(CNC(=O)c2c(=O)c3ccc(N4CCCN(C)CC4)nc3n3c2sc2ccccc23)cn1" readout_name="viability, T/C" data_value=65.3%
molecule="C#Cc1c(F)ccc2cc(O)cc(-c3ncc4c(N5CC6CCC(C5)N6)nc(OCC56CCCN5CC(F)C6)nc4c3F)c12 (stereo not drawn) + Cc1[nH]c2ccc(F)cc2c1-c1nc2c3cccnc3c3ncccc3c2[nH]1" readout_name="viability, T/C" data_value=23.9%
molecule="CCCS(=O)(=O)Nc1ccc(F)c(C(=O)c2c[nH]c3ncc(-c4ccc(Cl)cc4)cc23)c1F + Cc1[nH]c2ccc(F)cc2c1-c1nc2c3cccnc3c3ncccc3c2[nH]1" readout_name="viability, T/C" data_value=113%

----------
# Test system: 454973-116-R2-J3-PDC spheroids, viability, % test/control
# test-protocol: Anticancer human tumor 454973-116-R2-J3-PDC cell line growth inhibition [GQUAD];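 note: spheroids exposed to compounds for seven days; 100% = DMSO vehicle control viability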
# conditions-used: second compound 10 µM; first compound 0.1 µM; stronger effect = lower value; spheroids with HUVEC and MSC
The threshold is 60%. Values of viability, T/C beneath it are tagged Fulfilled; values meeting or exceeding it are tagged Not fulfilled.

compound="O=C(c1cc(Cc2n[nH]c(=O)c3ccccc23)ccc1F)N1CCN(C(=O)C2CC2)CC1 + Cc1[nH]c2ccc(F)cc2c1-c1nc2c3cccnc3c3ncccc3c2[nH]1" tested_on="454973-116-R2-J3-PDC spheroids, viability, % test/control" assigned_class="Not fulfilled"
compound="O=C(c1cc(Cc2n[nH]c(=O)c3ccccc23)ccc1F)N1CCN(C(=O)C2CC2)CC1 + Cc1cnc(CNC(=O)c2c(=O)c3ccc(N4CCCN(C)CC4)nc3n3c2sc2ccccc23)cn1" tested_on="454973-116-R2-J3-PDC spheroids, viability, % test/control" assigned_class=Fulfilled
compound="O=C(NO)c1cnc(N2CCN(S(=O)(=O)c3ccc4ccccc4c3)CC2)nc1 + Cc1cnc(CNC(=O)c2c(=O)c3ccc(N4CCCN(C)CC4)nc3n3c2sc2ccccc23)cn1" tested_on="454973-116-R2-J3-PDC spheroids, viability, % test/control" assigned_class=Fulfilled
compound="C=CC(=O)N1CCN(c2nc(=O)n(-c3c(C)ccnc3C(C)C)c3nc(-c4c(O)cccc4F)c(F)cc23)C(C)C1 (configuration not stated) + Cc1[nH]c2ccc(F)cc2c1-c1nc2c3cccnc3c3ncccc3c2[nH]1" tested_on="454973-116-R2-J3-PDC spheroids, viability, % test/control" assigned_class="Not fulfilled"
compound="COc1cc(C2c3cc4c(cc3C(OC3OC5COC(C)OC5C(O)C3O)C3COC(=O)C23)OCO4)cc(OC)c1O (configuration not stated) + Cc1[nH]c2ccc(F)cc2c1-c1nc2c3cccnc3c3ncccc3c2[nH]1" tested_on="454973-116-R2-J3-PDC spheroids, viability, % test/control" assigned_class="Not fulfilled"
compound="CC(C)(O)C1CCC(Nc2ccc3ncc(-c4cccc(C(F)(F)F)c4)n3n2)CC1 (configuration not stated) + CN(C)c1ccc(Nc2c3ccc(NC(=O)CCN4CCCC4)cc3nc3cc(NC(=O)CCN4CCCC4)ccc23)cc1" tested_on="454973-116-R2-J3-PDC spheroids, viability, % test/control" assigned_class="Not fulfilled"
compound="CC(C)(O)C1CCC(Nc2ccc3ncc(-c4cccc(C(F)(F)F)c4)n3n2)CC1 (configuration not stated) + Cc1[nH]c2ccc(F)cc2c1-c1nc2c3cccnc3c3ncccc3c2[nH]1" tested_on="454973-116-R2-J3-PDC spheroids, viability, % test/control" assigned_class="Not fulfilled"
